# Test system: IL-5 production
# Test Details: In vitro inhibition of IL-5 production in human blood (phytohemagglutinin-stimulated whole blood, ELISA);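 further: values marked with an asterisk were tested at 10 µM and unmarked values at 1 µM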
# Assay type: cell-based
# Recorded Conditions: test dose 1×10^−6 M, 48 hours
Please respond with reported % inh. (percentage inhibition of IL-5 production) for every item in the list.
Give bare numbers, in %.

Recorded results for 6 compounds are shown here.
compound="COCCNC(c1ccc(Cl)cc1)c1ccc(-n2ncc(=O)[nH]c2=O)cc1Cl (racemic) [Compound 41]" quantitative_result=11
compound="O=c1cnn(-c2ccc(C(c3ccc(Cl)cc3)c3nc(-c4ccccc4)sc3-c3ccccc3)c(Cl)c2)c(=O)[nH]1 (racemic) [Compound 373]" quantitative_result=40
compound="CCOc1ccc2nc(SC(c3ccc(Cl)c(C(F)(F)F)c3)c3c(Cl)cc(-n4ncc(=O)[nH]c4=O)cc3Cl)sc2c1 (stereo not shown) [Compound 394]" quantitative_result=93
compound="Nc1cc(O)nc(SC(c2ccc(Cl)cc2)c2ccc(-n3ncc(=O)[nH]c3=O)cc2Cl)n1 (stereo not shown) [Compound 87]" quantitative_result=9
compound="O=c1cnn(-c2cc(Cl)c(C(c3ccc(Cl)cc3)c3nc(-c4ccccc4)c(CNC(=S)Nc4ccccc4)s3)c(Cl)c2)c(=O)[nH]1 (racemic) [Compound 331]" quantitative_result=95
compound="O=c1cnn(-c2cc(Cl)c(C(Sc3nc4ccccc4s3)c3ccc(Cl)c(C(F)(F)F)c3)c(Cl)c2)c(=O)[nH]1 (stereo not shown) [Compound 385]" quantitative_result=95

Could you report % inh. (percentage inhibition of IL-5 production) for every entry in the following list?
1. O=c1cnn(-c2ccc(C(c3ccc(Cl)cc3)c3scnc3-c3cccc(F)c3)c(Cl)c2)c(=O)[nH]1 (racemic) [Compound 148]
2. CN(Cc1sc(C(c2ccc(Cl)cc2)c2c(Cl)cc(-n3ncc(=O)[nH]c3=O)cc2Cl)nc1-c1ccccc1)C1CCCCC1 (racemic) [Comp 334]
3. CCOC(=O)Cc1sc(C(c2ccc(Cl)cc2)c2c(Cl)cc(-n3ncc(=O)[nH]c3=O)cc2Cl)nc1-c1ccccc1Cl (racemic) [Comp 293]
4. Cc1ccc2[nH]c(SC(c3ccc(Cl)cc3)c3ccc(-n4ncc(=O)[nH]c4=O)cc3Cl)nc2c1 (racemic) [Compound 62]
5. CN1CCC(N(C)Cc2sc(C(c3ccc(Cl)cc3)c3c(Cl)cc(-n4ncc(=O)[nH]c4=O)cc3Cl)nc2-c2ccccc2)CC1 (racemic) [Comp 322]

1. 79
2. 75
3. 59
4. 30
5. 96

Could you report % inh. (percentage inhibition of IL-5 production) for every entry in the following list?
1. Cc1sc(SC(c2ccc(Cl)c(C(F)(F)F)c2)c2c(Cl)cc(-n3ncc(=O)[nH]c3=O)cc2Cl)nc1-c1ccccc1 (stereo not shown) [Compound 392]
2. CN(C)Cc1nnc(C(c2ccc(Cl)cc2)c2c(Cl)cc(-n3ncc(=O)[nH]c3=O)cc2Cl)o1 (racemic) [Compound 198]

1: 87; 2: 46

###

# System: IL-5 production
# Test Details: In vitro inhibition of IL-5 production in human blood (phytohemagglutinin-stimulated whole blood, ELISA);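 further: values marked with an asterisk were tested at 10 µM and unmarked values at 1 µM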
# Assay type: cell-based
# Recorded Conditions: test dose 1×10^−6 M, 48 hours
Please respond with reported % inh. (percentage inhibition of IL-5 production) for every item in the list.
Give bare numbers, in %.

Recorded results for 6 molecules are shown here.
molecule="Cc1nc(-c2ccccc2Cl)c(C(c2ccc(Cl)cc2)c2c(Cl)cc(-n3ncc(=O)[nH]c3=O)cc2Cl)s1 (racemic)" unit_of_measure=% quantitative_result=88
molecule="CCOCCc1nnc(C(c2ccc(Cl)cc2)c2c(Cl)cc(-n3ncc(=O)[nH]c3=O)cc2Cl)o1 (racemic)" unit_of_measure=% quantitative_result=55
molecule="O=c1cnn(-c2cc(Cl)c(C(c3ccc(Cl)cc3)c3nc(-c4cccc(C(F)(F)F)c4)cs3)c(Cl)c2)c(=O)[nH]1 (racemic)" unit_of_measure=% quantitative_result=70
molecule="Cn1c(-c2ccccc2)nnc1C(c1ccc(Cl)cc1)c1c(Cl)cc(-n2ncc(=O)[nH]c2=O)cc1Cl.O (stereo not shown)" unit_of_measure=% quantitative_result=66
molecule="CC(C)c1sc(C(c2ccc(Cl)cc2)c2c(Cl)cc(-n3ncc(=O)[nH]c3=O)cc2Cl)nc1-c1ccccc1 (racemic)" unit_of_measure=% quantitative_result=95
molecule="O=c1cnn(-c2ccc(C(Sc3ccccn3)c3ccc(Cl)c(C(F)(F)F)c3)c(Cl)c2)c(=O)[nH]1 (stereo not shown)" unit_of_measure=% quantitative_result=84

Please look up its % inh. (percentage inhibition of IL-5 production): CN(C)C(=O)Cc1sc(C(c2ccc(Cl)cc2)c2c(Cl)cc(-n3ncc(=O)[nH]c3=O)cc2Cl)nc1-c1ccccc1 (racemic)
94
